Test: NCI Yeast Anticancer Drug Screen. Data for the rad50 strain (AID 155);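 also: 0% = growth of vehicle-only cultures of the same strain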
Test settings: S. cerevisiae rad50 strain growth inhibition; at 50.0 µM; stronger effect = higher value
This is part of a sample that, as a whole, favours compounds with a hit. Of some 79,000 tested, about 15% had one in any assay.
Classification scheme (growth inhibition): low interval: < 50%; middle interval: ≥ 50% and < 90%; high interval: ≥ 90%

Completed entries (count: 5):
N/C(=N\N=C/c1ccc(O)c(O)c1O)NO: low interval
NC(=O)c1oc([N+](=O)[O-])c(-c2ccccc2)c1-c1ccccc1: low interval
COC(=O)CC1c2cc(OC)c3cccc(OC)c3c2CCC1(C)C(=O)OC (centres undefined): low interval
C=C1CC2(OC1=O)C(=O)N(C)c1ccccc12 (centres undefined): middle interval
CN(C)Cc1cc(N=Nc2ccc(Cl)c(Cl)c2)ccc1O: middle interval

In the following, a different molecule is considered.
Categorize the following entry: `Cc1ccccc1N=NC(C(=O)c1ccccc1)C(=O)c1ccccc1` high interval

---

Test: NCI Yeast Anticancer Drug Screen. Data for the bub3 strain (AID 167)
Test settings: S. cerevisiae bub3 mutant strain, at 50.0 µM, stronger effect = higher value
Compounds without any hit were thinned out: in the full panel of roughly 79,000, 15% have a hit. Activity calls are given as the source filed them. Rule as the data show it: active = growth inhibition above about 70%; inactive = the rest.
Measurement type: growth inhibition

Fill in growth inhibition for record `CC(C)(C)C1=CC(=CC=C2C=CN(CCO)C=C2)C=C(C(C)(C)C)C1=O` 31.6% (inactive)

Fill in growth inhibition for record `O=c1cc(-c2ccccc2)oc2ccc(-c3ccc4oc(-c5ccccc5)cc(=O)c4c3)cc12` 59% (inactive)

Fill in growth inhibition for record `Cc1ccc2cccc(N)c2c1` -5.15% (inactive)

Fill in growth inhibition for record `NNc1cc(Cl)ccc1Cl` 91.5% (active)

Fill in growth inhibition for record Cc1ccc(S(=O)(=O)OCC2OC(c3ccccc3)OC3C(CO)OC(c4ccccc4)OC23)cc1 (configuration not stated) -0.65% (inactive)

Fill in growth inhibition for record `Cc1ccc(N=C2SC(=S)N(CCC[N+](C)(C)C)C2=Nc2ccc(C)cc2)cc1` 99.4% (active)

Fill in growth inhibition for record NC(=O)C1CCCN1C(=O)C1CCCN(Cc2ccc(CN3CCCC(C(=O)N4CCCC4C(N)=O)C3)cc2)C1 (configuration not stated) 78.8% (active)

---

Test: NCI Yeast Anticancer Drug Screen. Data for the mec2-1 strain (AID 157)
Test settings: S. cerevisiae mec2-1 strain, at 50.0 µM (retest, dose inferred, filed as 5.0), stronger effect = higher value
About 79,000 compounds went through this panel and 15% of them were active in at least one assay; those are over-represented in the sample as a whole. Calls of active or inactive are those of the source. Cut-off read from the data, not from the text of the source: active = growth inhibition above about 70%; inactive = the rest.
Measurement type: growth inhibition

See these solved cases before continuing.
CC(=O)Nc1ccc(Nc2ccc(C(=C3C=CC(=[N+](C)CCC#N)C=C3)c3ccc(N(C)CCC#N)cc3)cc2)cc1: 77% (active)
OCc1c2c(cc3c1CC1(C3)Cc3cc4c(c(CO)c3C1)CCC4)CCC2: 97% (active)
CC(C)(Cl)C(Cl)CC/C(CBr)=C(\Cl)CBr (centres undefined): 99% (active)
COc1cc(C(c2cc3c(cc2O)OCO3)N2CCN(C(c3cc(OC)c(O)c(OC)c3)c3cc4c(cc3O)OCO4)CC2)cc(OC)c1O (centres undefined): 16% (inactive)
CC(C)(C)OC(=O)C(N(Cc1ccccc1)Cc1ccccc1)N(Cc1ccccc1)Cc1ccccc1: 9% (inactive)

Fill in growth inhibition for record `CNCCCNc1c2cc(OC)ccc2nc2cccc([N+](=O)[O-])c12` 97% (active)

---

Test: NCI Yeast Anticancer Drug Screen. Data for the mec2-1 strain (AID 157)
Test settings: S. cerevisiae mec2-1 strain, at 50.0 µM (retest, dose inferred, filed as 5.0)
This is part of a sample that, as a whole, favours compounds with a hit. Of some 79,000 tested, about 15% had one in any assay. Calls of active or inactive are those of the source. Cut-off read from the data, not from the text of the source: active = growth inhibition above about 70%; inactive = the rest.
Write down the outcome that applies. Available outcomes: y = active, n = inactive

Which outcome did this test record for the compound `CN(CCCN(CCO)CCO)C1CC(C)(C)N(O)C(C)(C)C1` ? n

Which outcome did this test record for the compound `CCN(CC)CCCCCCNc1cc(C)cc2ccc(C)nc12` ? n

Which outcome did this test record for the compound C=C1CC(O)C2C(C[Se]c3ccccc3)C(=O)O[C@@H]2C2C(=C)[C@@H](O)CC12 (stereo partly specified) ? n

Which outcome did this test record for the compound O=C(O)C1C(Br)(c2ccccc2)C1(Br)c1ccccc1 (stereo unspecified) ? n

Which outcome did this test record for the compound `COC(=O)c1ccc(CSc2ccc(OC)cc2)cc1` ? y

Which outcome did this test record for the compound CC(=O)OCC1OC(n2cnc3c(Cl)nc(Cl)nc32)C(OC(C)=O)C1OC(C)=O (stereo unspecified) ? n

---

Test: NCI Yeast Anticancer Drug Screen. Data for the cln2 rad14 strain (AID 165);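 also: 0% = growth equal to vehicle treated cultures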
Test settings: S. cerevisiae cln2 rad14 strain, at 5.0 µM (retest, dose inferred, filed as 0.5)
About 79,000 compounds went through this panel and 15% of them were active in at least one assay; those are over-represented in the sample as a whole. Active and inactive are the calls of the source. Cut-off read from the data, not from the text of the source: active = growth inhibition above about 70%; inactive = the rest.
Write down the outcome that applies. Available outcomes: active, inactive

Completed entries (count: 10):
Oc1ccc(O)c2nc3ccccc3nc12: inactive
COc1cccc(C2Nc3ccccc3C(=O)N2N2CCOCC2)c1 (centres undefined): inactive
Cc1nc(-c2ccc(N=Cc3ccc(N(CCOS(C)(=O)=O)CCOS(C)(=O)=O)cc3)cc2)cs1: inactive
C(=C/c1ccnc2ccccc12)/c1cccs1: inactive
O=[N+]([O-])c1ccc(C2=Nn3c(nnc3-c3ccc(Cl)cc3)SC2)o1: inactive
CC/C(=C(\CC)c1ccc(O)c(CN(CCO)CCO)c1)c1ccc(O)cc1: inactive
CCCCN(CCCC)S(=O)(=O)c1ccccc1: inactive
O=c1oc(-c2cc([N+](=O)[O-])cc([N+](=O)[O-])c2Cl)nc2ccccc12: inactive
CN(c1ccc(C(N)=O)cc1)c1c(O)c2ccccc2[nH]c1=O: inactive
C#Cc1cccc(N=Cc2cc(Cl)cc(Cl)c2O)c1: inactive

Which outcome did this test record for the compound `O=Nc1c2n[nH]c1CCCCCCCCC2` ? inactive

Which outcome did this test record for the compound `Cc1cc(NCCCCCCCNc2cc(C)nc3cc(N)ccc23)c2ccc(N)cc2n1` ? inactive

Which outcome did this test record for the compound `COc1cccc(/C=N/NC(=O)c2c(-c3ccccc3)noc2C)c1O` ? inactive

Which outcome did this test record for the compound `O=C(C(Cl)Cl)N(O)c1ccccc1OCc1ccccc1` ? inactive

Which outcome did this test record for the compound `CCCCN(c1ccccc1)c1ncnc2c1ncn2C` ? inactive

Which outcome did this test record for the compound `O=C(C[n+]1ccccc1)N=N/C(C(=O)Nc1c(Cl)c(O)c2ccccc2c1O)=C1/C(=O)Oc2cc(O)ccc2C1=O` ? inactive

Which outcome did this test record for the compound `CCCCCCCCCCCCO` ? inactive

Which outcome did this test record for the compound `O=C(OC1=C(Br)C(=O)c2ccccc2C1=O)c1ccccc1` ? inactive

Which outcome did this test record for the compound `Clc1nc(Cl)c(Cl)c(-c2ccccc2)n1` ? inactive

---

Test: NCI Yeast Anticancer Drug Screen. Data for the sgs1 mgt1 strain (AID 161);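 also: 0% = growth of cultures given vehicle only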
Test settings: S. cerevisiae sgs1 mgt1 strain, at 50.0 µM
About 79,000 compounds went through this panel and 15% of them were active in at least one assay; those are over-represented in the sample as a whole. The source made the active and inactive calls. No stated cut-off is given here; in the data, active means growth inhibition above about 70%; inactive means the rest.
Write down the outcome that applies. Available outcomes: active, inactive

Completed entries (count: 10):
O/N=C(/Cc1nc2cc(Cl)c(Cl)cc2nc1C/C(=N/O)c1ccncc1)c1ccncc1: active
O.O.O=Cc1cc(Br)cc(Br)c1O.O=Cc1cc(Br)cc(Br)c1O.[Co]: active
O=S1(=O)C(C(O)(c2ccccc2)c2ccccc2)CCCN1c1ccccc1 (stereo unspecified): active
CC12CCC(c3sc(N)c(C#N)c31)C2(C)C (stereo unspecified): inactive
CC(=O)c1c2c(cc3c1CC1(Cc4ccccc4C1=O)C3)CCC2 (stereo unspecified): inactive
OC(COc1ccc(Cl)cc1)CN1CCN(c2cccc(Cl)c2)CC1 (stereo unspecified): active
OC1(c2ccccc2)CCN(c2c3ccccc3nc3ccccc23)CC1: active
O=[N+]([O-])c1cc(C(F)(F)F)ccc1SSc1ccc(C(F)(F)F)cc1[N+](=O)[O-]: inactive
CCOc1ccc(C=Nc2ccc(/C=C(\C)C(=O)OCCC(C)C)cc2)cc1: active
C=CCOc1ccc(C2(c3ccc(OCC=C)cc3)C(=O)Nc3ccccc32)cc1: active

Which outcome did this test record for the compound `Cc1ccc(S(=O)(=O)NCCCOS(=O)(=O)c2ccc(C)cc2)cc1` ? inactive

Which outcome did this test record for the compound Cc1nnc(NS(=O)(=O)c2ccc(N=Nc3cc(N=Nc4ccc(S(=O)(=O)Nc5nnc(C)s5)cc4)c4c(NC(=O)C(Cl)Cl)cccc4c3OC(=O)C(Cl)Cl)cc2)s1 (tested in a mixture with another compound) ? inactive

Which outcome did this test record for the compound `CCN(CC)CCNC(=O)c1ccc2c(c1O)C(=O)c1ccccc1C2=O` ? inactive

Which outcome did this test record for the compound `Clc1cc2c(c3ncccc13)OCN(Cc1ccccc1)C2` ? active

Which outcome did this test record for the compound `O=C(NC(=Nc1ccccc1)SCCSC(=Nc1ccccc1)NC(=O)c1ccccc1)c1ccccc1` ? active

Which outcome did this test record for the compound Clc1ccc(-c2csc(NCC3CCCO3)n2)cc1 (stereo unspecified) ? active

Which outcome did this test record for the compound CC1=CC(c2c(O)cc(O)c(C(=O)CCc3ccccc3)c2O)C(C(C)C)CC1 (stereo unspecified) ? active

Which outcome did this test record for the compound `COc1ccc(-c2c(C(=O)O)[nH]c3ccccc23)cc1` ? active

Origin of the recorded values: PubChem BioAssay (NCI)
